Entry source: patent US20210147523A1

Biological target: T1, Mutant 2 of human SPNS2 (FLAG tag inserted in extracellular loop 5) (human, UniProt Q8IVW8 1-549)
T1 construct: on HEK293 cells; also called extracellular loop 5 mutant
T1 sequence: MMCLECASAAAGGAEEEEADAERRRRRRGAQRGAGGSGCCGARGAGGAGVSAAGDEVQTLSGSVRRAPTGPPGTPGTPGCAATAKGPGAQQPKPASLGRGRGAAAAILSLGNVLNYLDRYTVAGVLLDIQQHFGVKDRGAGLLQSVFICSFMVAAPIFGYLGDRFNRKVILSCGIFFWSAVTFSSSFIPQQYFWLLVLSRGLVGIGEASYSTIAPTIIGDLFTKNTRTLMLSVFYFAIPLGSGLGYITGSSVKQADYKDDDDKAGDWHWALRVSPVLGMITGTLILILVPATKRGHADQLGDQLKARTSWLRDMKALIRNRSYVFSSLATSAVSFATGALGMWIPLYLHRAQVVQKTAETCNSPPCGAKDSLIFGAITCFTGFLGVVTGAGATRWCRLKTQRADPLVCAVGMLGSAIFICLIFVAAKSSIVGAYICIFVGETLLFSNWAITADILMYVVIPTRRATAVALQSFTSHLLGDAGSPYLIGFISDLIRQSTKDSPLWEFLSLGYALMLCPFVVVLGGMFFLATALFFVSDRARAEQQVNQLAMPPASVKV
Assay: flow cytometry, FLAG-insertion mutant
quantity: FITC+/Alexa 647+ cell rate ratio

# input binder: 80-1104A (antibody, IgG2b, V domains shown) VH: EVQLVETGGGLVQPGSSLKLSCSTSGFTFSETWMSWVRQAPGKGLEWVGLIKDKNSNYEANYAESVKGRFTISRDDSKRRVYLQMYTLRDQDTATYYCTSHEDFYYYSSYYFDYWGQGVMVTVSS VL: DIVLTQSPATLSVTPGESVSLSCRASQGISTSIHWYQQKSNESPRLLIKYASQSMSGIPSRFSGSGSGTDFTLRINRVESEDFSVYYCQQSYNLPLTFGSGTKLEIKR ; wanted: its FITC+/Alexa 647+ cell rate ratio
≥ 0.5 ratio
